# TARGET_ENTITY: Recombinant human factor D (Homo sapiens (Human))
# METHOD_SUMMARY: Human Complement Factor D Assay: Method 1
# Assay type: biochemical
# APPLIED_CONDITIONS: Factor D inhibition, Method 1: 10 nM factor D, 1 hour incubation with compound at room temperature, substrate Z-Lys-thiobenzyl, fluorescence readout; read-out: IC50
pIC50: −log10 of the molar value.
Lab note: compare pIC50 against 6. Equal or greater, write rule met. Smaller, write rule not met.

Q) // inclusive: pIC50 at least 6? input: NC(=O)c1nn(CC(=O)N2[C@@H]3C[C@@H]3C[C@H]2C(=O)NC2CC2c2ccc(F)cc2F)c2ccccc12 (single isomer, unassigned) [Example 75]
A) rule not met

Q) // inclusive: pIC50 at least 6? input: NC(=O)c1nn(CC(=O)N2C[C@H](F)C[C@H]2C(=O)N[C@@H]2C[C@H]2c2ccccc2)c2ncccc12 [Example 17]
A) rule met

Q) // inclusive: pIC50 at least 6? input: CC(=O)c1nn(CC(=O)N2[C@@H]3C[C@@H]3C[C@H]2C(=O)N[C@H]2C[C@]2(F)c2ccccc2)c2ncccc12 [Example 45]
A) rule not met

Q) // inclusive: pIC50 at least 6? input: NC(=O)c1nn(CC(=O)N2[C@@H]3C[C@@H]3C[C@H]2C(=O)NC2CC2c2ccc(F)cc2F)c2ccccc12 (single isomer, unassigned) [Example 74]
A) rule not met

Q) // inclusive: pIC50 at least 6? input: NC(=O)c1nn(CC(=O)N2[C@@H]3C[C@@H]3C[C@H]2C(=O)N[C@@H]2C[C@H]2c2ccccc2)c2ccccc12 [Example 12]
A) rule met

---

# TARGET_ENTITY: Recombinant human factor D (Homo sapiens (Human), UniProt P00746)
# Sequence (P00746 26-253): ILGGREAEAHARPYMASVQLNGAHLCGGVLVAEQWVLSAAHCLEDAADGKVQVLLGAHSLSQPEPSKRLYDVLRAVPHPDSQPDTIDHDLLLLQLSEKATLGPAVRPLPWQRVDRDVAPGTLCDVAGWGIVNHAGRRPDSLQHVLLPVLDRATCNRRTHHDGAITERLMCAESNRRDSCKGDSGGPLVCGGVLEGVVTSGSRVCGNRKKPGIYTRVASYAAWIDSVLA
# METHOD_SUMMARY: Human Complement Factor D Assay: Method 1
# Type: biochemical
# APPLIED_CONDITIONS: Factor D inhibition, Method 1: 10 nM factor D, 1 hour incubation with compound at room temperature, substrate Z-Lys-thiobenzyl, fluorescence readout; read-out: IC50
OBSERVABLE: IC50 (µM)
Just the number please, in µM, no unit attached.

Q) Hi! What's the reported IC50 for CC(=O)c1nn(CC(=O)N2[C@@H]3C[C@@H]3C[C@H]2C(=O)N[C@H]2C[C@@H]2c2ccccc2)c2cnccc12 [Example 4] on Recombinant human factor D (Homo sapiens (Human), UniProt P00746)?
A) 0.702

Q) Hi! What's the reported IC50 for CC(=O)c1nn(CC(=O)N2[C@@H]3C[C@@H]3C[C@H]2C(=O)N[C@H]2C[C@@H]2c2cccc(Cl)c2F)c2ncccc12 [Example 57] on Recombinant human factor D (Homo sapiens (Human), UniProt P00746)?
A) 1.61

Q) Hi! What's the reported IC50 for NC(=O)c1nn(CC(=O)N2[C@@H]3C[C@@H]3C[C@H]2C(=O)N[C@@H]2C[C@@]2(F)c2ccccc2)c2cc(F)c(F)cc12 [Example 25] on Recombinant human factor D (Homo sapiens (Human), UniProt P00746)?
A) 0.11

---

# TARGET_ENTITY: Recombinant human factor D (Homo sapiens (Human))
# METHOD_SUMMARY: Human Complement Factor D Assay: Method 1
# Format: biochemical
# APPLIED_CONDITIONS: Factor D inhibition, Method 1: 10 nM factor D, 1 hour incubation with compound at room temperature, substrate Z-Lys-thiobenzyl, fluorescence readout; read-out: IC50
Label yes (1) when IC50 is strictly below 200 nM; otherwise label no (0).

Q) Is IC50 strictly under 200 nM for the entry CC(=O)c1nn(CC(=O)N2[C@@H]3C[C@@H]3C[C@H]2C(=O)N[C@@H]2C[C@H]2c2ccccc2)c2cnccc12 [Example 5] ?
A) yes (1)

Q) Is IC50 strictly under 200 nM for the entry NC(=O)c1nn(CC(=O)N2C[C@H](F)C[C@H]2C(=O)N[C@@H]2C[C@H]2c2ccccc2F)c2cnccc12 [Example 40] ?
A) yes (1)

Q) Is IC50 strictly under 200 nM for the entry CC(=O)c1nn(CC(=O)N2[C@@H]3C[C@@H]3C[C@H]2C(=O)N[C@@H]2C[C@@]2(F)c2ccccc2)c2cnccc12 [Example 46] ?
A) yes (1)

Q) Is IC50 strictly under 200 nM for the entry CC(=O)c1nn(CC(=O)N2[C@@H]3C[C@@H]3C[C@H]2C(=O)NC2CC2c2ccc(C)c(C)c2)c2cnccc12 (some centres unmarked) [Example 34] ?
A) yes (1)

Q) Is IC50 strictly under 200 nM for the entry NC(=O)c1nn(CC(=O)N2C[C@H](F)C[C@H]2C(=O)N[C@@H]2C[C@H]2c2ccccc2)c2ccccc12 [Example 18] ?
A) yes (1)

Q) Is IC50 strictly under 200 nM for the entry NC(=O)c1nn(CC(=O)N2[C@@H]3C[C@@H]3C[C@H]2C(=O)N[C@@H]2C[C@@]2(F)c2ccccc2)c2cnccc12 [Example 43] ?
A) no (0)

Q) Is IC50 strictly under 200 nM for the entry CC(=O)c1nn(CC(=O)N2[C@@H]3C[C@@H]3C[C@H]2C(=O)N[C@]2(C)C[C@H]2c2ccccc2)c2cnccc12 [Example 22] ?
A) no (0)

Q) Is IC50 strictly under 200 nM for the entry CC(=O)c1nn(CC(=O)N2[C@H](C(=O)N[C@@H]3C[C@H]3c3ccccc3)C[C@@]3(CO)C[C@@H]23)c2ncccc12 [Example 28] ?
A) yes (1)

Q) Is IC50 strictly under 200 nM for the entry CC(=O)c1nn(CC(=O)N2[C@@H]3C[C@@H]3C[C@H]2C(=O)NC2CC2c2ccc(OC(F)F)cc2)c2cnccc12 (some centres unmarked) [Example 32] ?
A) no (0)

Q) Is IC50 strictly under 200 nM for the entry CC(=O)c1nn(CC(=O)N2[C@@H]3C[C@@H]3C[C@H]2C(=O)NC2CC2c2cccc(C(F)(F)F)c2)c2cnccc12 (some centres unmarked) [Example 33] ?
A) no (0)

Q) Is IC50 strictly under 200 nM for the entry Cc1cc2c(C(N)=O)nn(CC(=O)N3[C@@H]4C[C@@H]4C[C@H]3C(=O)N[C@@H]3C[C@H]3c3ccccc3F)c2cn1 [Example 70] ?
A) yes (1)

Q) Is IC50 strictly under 200 nM for the entry CC(=O)c1nn(CC(=O)N2[C@@H]3C[C@@H]3C[C@H]2C(=O)N[C@@H]2C[C@H]2c2ccccc2)c2ccccc12 [Example 2] ?
A) yes (1)

Q) Is IC50 strictly under 200 nM for the entry NC(=O)c1nn(CC(=O)N2C[C@H](F)C[C@H]2C(=O)N[C@H]2C[C@@H]2c2ccccc2F)c2cnccc12 [Example 41] ?
A) no (0)

Q) Is IC50 strictly under 200 nM for the entry NC(=O)c1nn(CC(=O)N2C[C@H](F)C[C@H]2C(=O)N[C@@H]2C[C@H]2c2ccccc2)c2ccncc12 [Example 16] ?
A) no (0)

Q) Is IC50 strictly under 200 nM for the entry NC(=O)c1nn(CC(=O)N2[C@@H]3C[C@@H]3C[C@H]2C(=O)N[C@@H]2C[C@H]2c2ccccc2Cl)c2cnccc12 [Example 67] ?
A) yes (1)

Q) Is IC50 strictly under 200 nM for the entry CC(=O)c1nn(CC(=O)N2[C@@H]3C[C@@H]3C[C@H]2C(=O)N[C@@]2(C)C[C@@H]2c2ccccc2)c2cnccc12 [Example 23] ?
A) no (0)

Q) Is IC50 strictly under 200 nM for the entry CC(=O)c1nn(CC(=O)N2[C@H](C(=O)N[C@@H]3C[C@H]3c3ccccc3)C[C@@]3(CO)C[C@@H]23)c2cnccc12 [Example 29] ?
A) yes (1)

Q) Is IC50 strictly under 200 nM for the entry CO[C@H]1[C@@H](C(=O)N[C@@H]2C[C@H]2c2ccccc2)N(C(=O)Cn2nc(C(C)=O)c3ccccc32)C[C@@H]1F [Example 10] ?
A) yes (1)

Q) Is IC50 strictly under 200 nM for the entry CC(=O)c1nn(CC(=O)N2[C@@H]3C[C@@H]3C[C@H]2C(=O)N[C@@H]2C[C@H]2c2cccc(Cl)c2F)c2ncccc12 [Example 56] ?
A) yes (1)

Q) Is IC50 strictly under 200 nM for the entry NC(=O)c1nn(CC(=O)N2[C@H](C(=O)N[C@@H]3C[C@H]3c3ccccc3Cl)C[C@@]3(CO)C[C@@H]23)c2ccccc12 [Example 30] ?
A) yes (1)

Q) Is IC50 strictly under 200 nM for the entry NC(=O)c1nn(CC(=O)N2[C@@H]3C[C@@H]3C[C@H]2C(=O)N[C@@H]2C[C@@]2(F)c2ccccc2)c2ccc(F)cc12 [Example 26] ?
A) yes (1)

Q) Is IC50 strictly under 200 nM for the entry CCc1cc2c(C(N)=O)nn(CC(=O)N3[C@@H]4C[C@@H]4C[C@H]3C(=O)N[C@@H]3C[C@H]3c3ccccc3)c2cn1 [Example 19] ?
A) yes (1)

Q) Is IC50 strictly under 200 nM for the entry CC(=O)c1nn(CC(=O)N2[C@@H]3C[C@@H]3C[C@H]2C(=O)N[C@H]2C[C@@H]2c2ccccc2)c2ccccc12 [Example 1] ?
A) no (0)

Q) Is IC50 strictly under 200 nM for the entry NC(=O)c1nn(CC(=O)N2[C@@H]3C[C@@H]3C[C@H]2C(=O)NC2CC2c2ccc(F)cc2F)c2ccccc12 (single isomer, unassigned) [Example 76] ?
A) yes (1)

Q) Is IC50 strictly under 200 nM for the entry CC(=O)c1nn(CC(=O)N2[C@@H]3C[C@@H]3C[C@H]2C(=O)N[C@@H]2C[C@H]2c2cccc(Cl)c2)c2ncccc12 [Example 54] ?
A) no (0)

Q) Is IC50 strictly under 200 nM for the entry CC(=O)c1nn(CC(=O)N2[C@@H]3C[C@@H]3C[C@H]2C(=O)NC2CC(c3ccccc3F)C2)c2ncccc12 (some centres unmarked) [Example 36] ?
A) no (0)
